Recorded IC50 by entry
# MEASURED TARGET: JAK3 (Homo sapiens (Human), UniProt P52333)
# Sequence (P52333 whole entry): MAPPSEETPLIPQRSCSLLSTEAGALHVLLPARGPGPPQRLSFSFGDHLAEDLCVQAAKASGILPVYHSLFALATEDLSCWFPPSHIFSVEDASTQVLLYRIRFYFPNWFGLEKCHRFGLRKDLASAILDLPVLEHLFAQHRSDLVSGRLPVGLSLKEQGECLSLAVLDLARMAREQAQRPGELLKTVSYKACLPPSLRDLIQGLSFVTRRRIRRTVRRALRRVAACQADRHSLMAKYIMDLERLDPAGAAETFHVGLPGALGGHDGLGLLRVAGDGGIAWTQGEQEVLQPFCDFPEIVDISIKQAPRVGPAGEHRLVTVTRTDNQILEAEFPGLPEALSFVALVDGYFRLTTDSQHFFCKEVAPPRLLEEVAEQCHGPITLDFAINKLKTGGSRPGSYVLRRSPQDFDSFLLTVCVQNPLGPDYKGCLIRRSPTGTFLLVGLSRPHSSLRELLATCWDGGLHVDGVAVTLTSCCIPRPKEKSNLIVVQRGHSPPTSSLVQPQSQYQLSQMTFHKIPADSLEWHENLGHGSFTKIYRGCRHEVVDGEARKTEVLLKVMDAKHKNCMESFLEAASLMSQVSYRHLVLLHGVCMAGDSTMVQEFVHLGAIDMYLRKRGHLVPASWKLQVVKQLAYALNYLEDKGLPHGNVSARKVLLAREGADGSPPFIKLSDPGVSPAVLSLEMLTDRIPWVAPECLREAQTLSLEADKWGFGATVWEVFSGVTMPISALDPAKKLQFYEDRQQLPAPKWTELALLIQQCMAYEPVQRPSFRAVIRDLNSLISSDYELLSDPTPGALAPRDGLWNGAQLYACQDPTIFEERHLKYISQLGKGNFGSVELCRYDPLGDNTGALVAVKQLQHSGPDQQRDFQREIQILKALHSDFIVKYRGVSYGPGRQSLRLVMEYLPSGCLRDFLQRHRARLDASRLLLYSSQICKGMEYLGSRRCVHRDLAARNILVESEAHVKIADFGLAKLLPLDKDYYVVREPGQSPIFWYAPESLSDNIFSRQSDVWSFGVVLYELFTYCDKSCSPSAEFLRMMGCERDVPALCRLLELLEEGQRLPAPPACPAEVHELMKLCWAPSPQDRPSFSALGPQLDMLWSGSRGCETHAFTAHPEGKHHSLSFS
# MEASUREMENT NOTES: Enzyme assay (Assay Example^a 1), JAK3
# Assay type: biochemical
# CONDITION INFO: ATP 100 μM

Solved entries:
# MOLECULE, IC50
records = [
    ("N#CC(NC(=O)[C@H]1CC[C@H](c2nnn3cnc4[nH]ccc4c23)CC1)c1ccccc1 (some centres unmarked)", "> 1 µM"),
    ("O[C@H]1CC[C@H](NC[C@H]2CC[C@H](c3nnn4cnc5[nH]ccc5c34)CC2)CC1", "> 1 µM"),
    ("FC(F)(F)CCNC[C@H]1CC[C@H](c2nnn3cnc4[nH]ccc4c23)CC1", "0.99 µM"),
    ("COc1ccc(C(O)(CN[C@H]2CC[C@H](c3nnn4cnc5[nH]ccc5c34)CC2)C(F)(F)F)cc1 (some centres unmarked) [388b]", "0.26 µM"),
    ("Fc1ccc(NC[C@H]2CC[C@H](c3nnn4cnc5[nH]ccc5c34)CC2)cc1C(F)(F)F", "> 1 µM"),
]

Field IC50 (JAK3 (Homo sapiens (Human), UniProt P52333)), entry N#CCC(=O)NC[C@H]1CC[C@H](c2nnn3cnc4[nH]ccc4c23)CC1 : 0.23 µM

Observed IC50 on JAK3 (Homo sapiens (Human), UniProt P52333), entry Fc1ccc([C@@H]2C[C@H]2CN[C@H]2CC[C@H](c3nnn4cnc5[nH]ccc5c34)CC2)cc1 (relative stereo) [389b] , equals > 1 µM

Item c1cc2c(ncn3nnc([C@H]4CC[C@H](CNC5CSC5)CC4)c23)[nH]1 was tested on JAK3 (Homo sapiens (Human), UniProt P52333); the reported IC50 is 0.52 µM

For the molecule FC(F)CNC[C@H]1CC[C@H](c2nnn3cnc4[nH]ccc4c23)CC1 , the measured IC50 on JAK3 (Homo sapiens (Human), UniProt P52333) was 0.24 µM

IC50 for JAK3 (Homo sapiens (Human), UniProt P52333) with input O=C(CNC[C@H]1CC[C@H](c2nnn3cnc4[nH]ccc4c23)CC1)NCC(F)(F)F equals 0.31 µM

Known value: JAK3 (Homo sapiens (Human), UniProt P52333) IC50 of the molecule N#C[C@H]1CC[C@H](c2nnn3cnc4[nH]ccc4c23)CC1 equals > 1 µM

Reference for the values: patent US9216999B2
